Target: human PMNL LTB4 receptor (Homo sapiens, UniProt Q15722)
Construct: endogenous in cells
Sequence (Q15722 whole entry): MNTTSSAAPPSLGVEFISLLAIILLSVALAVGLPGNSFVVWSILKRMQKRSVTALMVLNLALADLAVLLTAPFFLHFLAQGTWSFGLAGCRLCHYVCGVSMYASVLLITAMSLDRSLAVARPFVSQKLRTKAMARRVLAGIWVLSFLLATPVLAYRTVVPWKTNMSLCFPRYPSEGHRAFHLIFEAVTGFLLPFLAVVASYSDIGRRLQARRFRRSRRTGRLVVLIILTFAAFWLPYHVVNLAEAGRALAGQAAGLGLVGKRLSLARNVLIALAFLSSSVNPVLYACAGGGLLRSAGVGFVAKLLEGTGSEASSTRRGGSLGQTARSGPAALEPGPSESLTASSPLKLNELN
Test: Binding affinity of 3H-LTB4 antagonist to human PMNL LTB4 receptor (inhibition of specific 3H-LTB4 binding)
Details: 1 nM 3H-LTB4, human PMNLs, 4° C., 20 min
pIC50: −log10 of the molar value.
measuredEndpoint: pIC50

COc1ccc(/C=C/CCCCOc2ccc(NC(=O)CCCC(=O)N(C)C)cc2CCC(=O)O)cc1OC [1 (r)] | 5.96

a. COc1ccc(CCCCCCOc2ccc(NS(=O)(=O)c3ccc(C)cc3)cc2CCC(=O)O)cc1
b. COc1ccc(/C=C/CCCCOc2cccc(CCCCCC(=O)N(C)C)c2CCC(=O)O)cc1
// query Between these two entries, a and b , state which has the higher pIC50. Label of pick, please.
// result b
(b: 7.70, a: 7.10)

A. COc1ccc(/C=C/CCCCOc2cccc(C(O)CCCCC(=O)N(C)C)c2CCC(=O)O)cc1 (stereo not shown)
B. COc1ccc(/C=C/CCCCOc2ccc(NC(=O)CCCC(=O)N3CCc4ccccc43)cc2CCC(=O)O)cc1
C. COc1ccc(/C=C/CCCCOc2ccc(NC(=O)CCCC(=O)O)cc2CCC(=O)O)cc1
D. COc1ccc(/C=C/CCCCOc2ccc(N3C(=O)CCS3(=O)=O)cc2CCC(=O)O)cc1
E. COc1ccc(/C=C/CCCCOc2cccc(C(=O)CCCCC(=O)N(C)C)c2CCC(=O)O)cc1
// query Write the entries in order, lowest recorded pIC50 first. Field: ranking. Enter the labels in the order requested.
// result A, B, C, E, D

a. COc1ccc(/C=C/CCCCOc2ccc(NC(=O)CCCC(=O)N3CCOCC3)cc2CCC(=O)O)cc1
b. COc1ccc(/C=C/CCCCOc2ccc(NC(=O)c3cccc(C(=O)N(C)C)c3)cc2CCC(=O)O)cc1
c. COc1ccc(/C=C/CCCCOc2ccc(CCCCC(=O)N(C)C)cc2CCC(=O)O)cc1
// query Write the entries in order, lowest recorded pIC50 first. Field: ranking. Enter the labels in the order requested.
// result a, b, c

Value source: patent US5256686A
